This collection of values is drawn from patent US20240293367A1.

- Protocol Notes: Phase I/IIa clinical PK of oral psilocin-d10, plasma, noncompartmental analysis (Cohorts 1-6)
- Type: in vivo, human
- Test Conditions: human, plasma, oral; 10 mg, Cohort 3 Day 8; set ~20% below the 2-hour value; read-out: estimated plasma psilocin-d10 concentration of one subject at 4 hours postdose (missed sample)

# Smiles, Endpoint Unit, concentration at 4 h
measured = [
    ("[2H]C([2H])([2H])N(C([2H])([2H])[2H])C([2H])([2H])C([2H])([2H])c1c[nH]c2cccc(O)c12", "ng/mL", 14.9),
]

* * *

- Protocol Notes: Phase I/IIa clinical PK of oral psilocin-d10, plasma, noncompartmental analysis (Cohorts 1-6)
- Format: in vivo, human
- Test Conditions: human, plasma, po, 10 mg, 10 mg oral, Cohort 3 NHV, Day 8; read-out: T1/2 Mean (SD) (converted)
Property: half-life (h)

# Smiles, Observed
data = [
    ("[2H]C([2H])([2H])N(C([2H])([2H])[2H])C([2H])([2H])C([2H])([2H])c1c[nH]c2cccc(O)c12", 5.12),
]
